Hey, just so you know, these numbers are from ChEMBL document CHEMBL1153991.

# assay.comment: Volume of distribution in rat
# Type: ADME, organism-based
# condition.label: in vivo

# mol.smiles, Vd
data = [
    ("N=C1OCCN1Cc1ccc(C(=O)Nc2ccc(Cl)cc2C(=O)Nc2ccc(Cl)cn2)cc1", "13.6 L/kg"),
]

---

# assay.comment: Clearance in Beagle dog at 0.1 mg/kg, iv and 0.5 mg/kg, po
# Format: ADME, organism-based, Canis lupus familiaris
# condition.label: in vivo
measured.parameter: clearance (mL/min/kg)

# mol.smiles, units.symbol, value.reported
data = [
    ("CN(C)C(=N)c1ccc(C(=O)Nc2ccccc2C(=O)Nc2ccc(Cl)cn2)cc1", "mL/min/kg", 45.7),
    ("CN1CCN=C1c1ccc(C(=O)Nc2ccccc2C(=O)Nc2ccc(Cl)cn2)cc1", "mL/min/kg", 49.6),
]
